Test: Human HepG2 cell viability assay in 384 well format
Format: toxicity, cell-based
Design: dose 125 nL, time 70.5 hour; concentration not given beside the values
Conditions: HepG2 cells, read-out: Inhibition

compound	cytotoxicity at 70.5 h
Cc1ccc(S(C)(=O)=O)cc1C(=O)N(C)Cc1ccco1	-3.41%
CN1C[C@@H](O)[C@]2(CCN(C(=O)c3ccccc3)C2)S1(=O)=O	-7.54%
Cc1ccc(CN2C[C@H](OCC3CCOCC3)[C@H]3COC[C@H]32)o1	17%
CCc1cnc(N2CCCOC(CN3CCCC3)C2)nc1 (stereo unspecified)	7.5%
CCc1ncc(CNC2CC(=O)N(CCc3cccc(Cl)c3)C2)cn1 (stereo unspecified)	-4.07%
N#CCCN(Cc1ccco1)C(=O)COC1CCCCC1	21.5%

* * *

Recorded cytotoxicity at 70.5 h, one value per entry.
Test: Human HepG2 cell viability assay in 384 well format
Format: toxicity, cell-based
Set-up: dose 125 nL, time 70.5 hour; concentration not given beside the values
Settings: HepG2 cells, read-out: Inhibition
experimental.readout: cytotoxicity at 70.5 h

compound	experimental.readout	measured.value
O=C(c1ccc2c(c1)CCCC2)N1CCN(c2cnccn2)CC1	cytotoxicity at 70.5 h	-11.8%
COCC(C)(C)NC(=O)CC(c1ccccc1)C(F)(F)F (centres undefined)	cytotoxicity at 70.5 h	-15.6%
CCOC(=O)c1n[nH]cc1-c1cncn1CCn1nc(C)c(C)c1C	cytotoxicity at 70.5 h	-6.65%
NC(=O)c1nc(COc2ccc3c(c2)OCO3)no1	cytotoxicity at 70.5 h	-12.9%
Cc1nc(C)n(CC2CCCN(c3ccc(C#N)cn3)C2)n1 (centres undefined)	cytotoxicity at 70.5 h	-3.58%
CNC(=O)[C@@H]1CCO[C@@H]2CCN(C3CCOCC3)C[C@@H]21	cytotoxicity at 70.5 h	-0.345%
O=C(Nc1ccc(CCN2CCSCC2)cc1)NC1CC1	cytotoxicity at 70.5 h	-11.9%
CN(Cc1ccccc1)CC(C)(C)NC(=O)c1ccc(C(N)=O)cn1	cytotoxicity at 70.5 h	1.67%
COc1ccc(CN2C[C@@H]3OCCN(c4ncccn4)[C@@H]3C2)cc1	cytotoxicity at 70.5 h	-7.28%
CCn1c(C2CCNCC2)nn(CCn2cncn2)c1=O	cytotoxicity at 70.5 h	-6.69%
CNC(=O)c1cn2cc(-c3ccccc3Cl)n(CC=C(C)C)c(=O)c2n1	cytotoxicity at 70.5 h	35.1%
CN1CCC(c2cncc(N(C)C)n2)CC1	cytotoxicity at 70.5 h	-4.58%
Cc1ccc(CNC(=O)CN2CCCC(Cn3cncn3)C2)s1 (centres undefined)	cytotoxicity at 70.5 h	22.1%
COCc1ccc(C(=O)NCCCNc2ccc(C(F)(F)F)cn2)cc1	cytotoxicity at 70.5 h	-11.2%
Cc1ccc(N2CCCC(N3CCC(CO)CC3)C2=O)cc1 (centres undefined)	cytotoxicity at 70.5 h	12.9%
Cc1nc(CNC(=O)NC2CCN(c3cccc(Cl)c3)C2)no1 (centres undefined)	cytotoxicity at 70.5 h	-1.4%
Cc1ccc(C(=O)NS(C)(=O)=O)cc1S(C)(=O)=O	cytotoxicity at 70.5 h	3.46%
CN(C)c1cc(C(=O)N2CCN(c3nccs3)CC2)ccn1	cytotoxicity at 70.5 h	-13.8%
Cc1ccc2c(n1)N(CCn1cccn1)CCN(CC1CC1)C2	cytotoxicity at 70.5 h	-3.95%
Cc1ccnc2c1NC(=O)CN2C(=O)CCC(F)(F)F	cytotoxicity at 70.5 h	-6.32%
CSc1nc(N)cc(N2C[C@@H]3CC[C@H](C2)N(CC2CC2)C3=O)n1	cytotoxicity at 70.5 h	3.27%
CCc1nnc2n1CCN(CC(O)c1ccc3c(c1)OCCO3)C2 (centres undefined)	cytotoxicity at 70.5 h	23.6%
CC(=O)N1CCO[C@@H]2CN(S(=O)(=O)c3cccnc3)C[C@@H]2C1	cytotoxicity at 70.5 h	0.618%
COc1cc(CNCC2CNc3ccnn3C2)ccn1 (centres undefined)	cytotoxicity at 70.5 h	-3.41%

* * *

Recorded cytotoxicity at 70.5 h, one value per entry.
Experiment: Human HepG2 cell viability assay in 384 well format
Format: toxicity, cell-based
Design: dose 125 nL, time 70.5 hour; concentration not given beside the values
Settings: HepG2 cells, read-out: Inhibition

compound	cytotoxicity at 70.5 h / %
CCc1cnc(N2CCN(Cc3ccncc3)CC2)s1	-3.17
COCCCN1CCC(N(Cc2noc(C)n2)C(C)=O)C1 (stereo not drawn)	-5.67
CCc1cc(N(C)Cc2cc[nH]n2)n2nc(C)c(C)c2n1	-4.44
Cc1nc(COC[C@H]2CCC[C@]23CN(CC2CC2)CCO3)cs1	18.4
O=C(c1cncc(NCC2COc3ccccc3C2)n1)N1CCOCC1 (stereo not drawn)	-7.07
Cc1nc(C)n(CC2CCCN2Cc2nnc(-c3ccco3)o2)n1 (stereo not drawn)	11.1
CN(CCOc1ccc(Cl)cc1)Cc1ccc(S(=O)(=O)N(C)C)o1	-2.41
OC1(CN2CCCCC2)CCN(Cc2c[nH]c(CC3CCCC3)n2)C1 (stereo not drawn)	-8.48
NC(=O)CNC1(c2ccc(Cl)cc2)CCCC1	0.922
CS(=O)(=O)c1cccc(S(=O)(=O)NCCCN2CCNC(=O)C2)c1	-5.37
Clc1cc(CN2CCCN3CCCC3C2)c2ncccc2c1 (stereo not drawn)	-2.91
O=C(NCc1cc(-c2ccccc2)no1)NC1CCCCNC1=O (stereo not drawn)	4.05
O=C(COCc1ccccc1)N1CCCC1c1noc(C2CC2)n1 (stereo not drawn)	-7.31
CN1CCC(c2cccc(Cc3ccc(F)cc3)n2)CC1	-13.1
Cc1ccc(F)c(NC(=O)CCC(=O)N(C)Cc2cc(C3CC3)[nH]n2)c1	-8.19
CNS(=O)(=O)c1ccccc1N1CCN(C(=O)C(C)C)CC1	-5.83
CNc1nc2c(c(C(=O)N3CCCC3)n1)CN(C(=O)CCSC)CC2	-1.55
Cc1ccc(N2CCC3(CCN(C(=O)c4ccsc4)CC3)C2)nn1	4.86
COc1ccc(OCC(=O)NS(=O)(=O)c2ccc(Br)s2)cc1	18.9
CN(CCCc1cnn(C)c1)Cc1cc2n(n1)CCCN(C)C2	-7.1
CC(C)OCCC(=O)Nc1ncn(CC(=O)N2CCCCCC2)n1	-1.46
c1cc(-c2noc(CN3CCn4c(nnc4C4CC4)C3)n2)cs1	-19.2
Cc1nn(C)c(C)c1C1COCCN1C(=O)c1cnc(N)c(Cl)c1 (stereo not drawn)	-3.52
Cc1cnc(N2CCC(OCCN3CCCCC3)C2)nc1C (stereo not drawn)	-4.38
CC(C)COC(=O)N1CC(=O)N(Cc2ccco2)CC(O)C1 (stereo not drawn)	-3.84
CCOC(=O)NCCC(=O)NCc1ccnc(Oc2ccc(F)cc2)c1	-1.77
COc1ccc(OC)c(NC(=O)c2cc3c([nH]c2=O)CCCC3=O)c1	-4.78
Cc1c(S(=O)(=O)N2CCCCC2c2nnc(-c3cccs3)o2)cnn1C (stereo not drawn)	-2.57
Cc1c(C(=O)NC2CCCOc3cc(Cl)ccc32)cnn1C (stereo not drawn)	-15.2
COc1ccccc1CC(=O)NCCCN1CCCC1C(=O)N(C)C (stereo not drawn)	2.29
Cc1nnsc1CNC(=O)c1ccc2c(c1)nc(N1CCOCC1)n2C	-12.9
CCOCCn1nc(C)cc1C(=O)N1CC[C@](O)(CC)[C@H](O)C1	3.37
CCOCCCC(=O)NCc1ccc(N2CCCCC2)cc1	-11.1
CCC[C@H]1CN(C(=O)c2cc(-c3cccs3)n(C)n2)C[C@@H]1N	-0.00623
Cc1ccc(C(=O)N2CCC(c3n[nH]c(C4CC4)n3)CC2)cc1F	-7.97
COc1cc(C)cc(OC)c1C(C(=O)O)N(C)Cc1c(C)nn(C)c1C (stereo not drawn)	-14.7
COCC(=O)N1CCN(C)c2ncccc2C1	-0.482
COc1ncccc1CNC(=O)NC(C)Cn1cccn1 (stereo not drawn)	-14.1
Clc1cccc(N2CCC(NCc3cc[nH]n3)C2)c1 (stereo not drawn)	3.22
CC1CCN(C(=O)c2cc(NC(=O)c3ccccc3)n(C)n2)CC1	-14.1
CC(C)C(C)(C#N)NC(=O)CN1CCC(c2ccnn2CCO)CC1 (stereo not drawn)	-3.64
Cc1ccc(N2CC3(CCN(C(=O)c4ccoc4)C3)C2)nn1	-12.3
CCC(C)N(Cc1sccc1C)C(=O)c1cc(N)ccn1 (stereo not drawn)	-11.9
Cn1ncc2c(N3CCCC(C)(O)C3)nc(C(C)(C)C)nc21 (stereo not drawn)	-7.72
Cc1ccc(N2CC3(CCN(c4nccs4)C3)C2)nn1	-4.92
Cc1ccc(NC2CCN(C(=O)CCCc3ccccn3)CC2)nn1	9.21
Nc1nccc(C2CCN(CC3CC3)C2)n1 (stereo not drawn)	17.6
Cc1ncsc1CCN(C)C(=O)CN1CC2(CCNCC2)OC1=O	17.2

* * *

Recorded cytotoxicity at 70.5 h, one value per entry.
Experiment: Human HepG2 cell viability assay in 384 well format
Format: toxicity, cell-based
Parameters: dose 125 nL, time 70.5 hour; concentration not given beside the values
Settings: HepG2 cells, read-out: Inhibition

compound	cytotoxicity at 70.5 h
CNC(=O)[C@H]1C[C@@H]2CN(C(=O)c3cnc(C)cn3)C[C@@H]2N1C	-8.55%
COc1ccc(S(=O)(=O)N2CCC(S(C)(=O)=O)CC2)cc1C	5.77%
Cc1ccc(N2CCCN(C(=O)c3cc(Cl)c[nH]3)CC2)nn1	-8.66%
Cc1ccc(C(=O)NCc2ccccc2S(=O)(=O)N(C)CCO)cc1F	-1.52%
CCC(=O)NCC(=O)Nc1c(C)cnn1Cc1cc(F)ccc1F	-5.16%
Cc1nc(-c2c(-c3ccccc3)ncn2[C@H]2C[C@@H](C(=O)O)N(C)C2)co1	-11.1%
Cc1cc(N2CCCC2c2nc(C)cc(CCC(=O)O)n2)ncn1 (stereo unspecified)	-9.37%
CC(C)c1nc(C2CCCN2CCS(C)(=O)=O)no1 (stereo unspecified)	-12.9%
CCc1nnc(SCc2nonc2C)n1C1CC1	-10.7%
O=C(O)C1(Cc2ccc(F)cc2)CCCN(Cc2ccncc2)C1 (stereo unspecified)	4.55%
Cc1ccc(N2CC3(COCCN(Cc4cccnc4)C3)OCC2=O)s1 (stereo unspecified)	26.6%
